B1: TPR t1 (parent)
chain: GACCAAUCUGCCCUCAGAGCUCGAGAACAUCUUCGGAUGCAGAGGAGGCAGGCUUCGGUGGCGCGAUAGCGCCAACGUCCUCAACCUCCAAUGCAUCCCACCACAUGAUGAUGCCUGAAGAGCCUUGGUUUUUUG

Variants of: B1
test-method-notes: polymerase ribozyme fitness, log enrichment relative to wild type (log ratio); higher = more active; in vitro selection for triplet polymerase activity
// label 0 strictly below -2 in polymerase ribozyme fitness (log ratio); label 1 otherwise

Please review the following examples before continuing.
API: above_or_equal(metric=polymerase ribozyme fitness (log ratio), cutoff=-2) for item G35A U55A U78G C89U A91C C124A U126G G128U
label 0

Next entry: U32G C53A C64U U109G
label 0

Next entry: C86U U87A C101A U129G
label 0

Continuing:
API: above_or_equal(metric=polymerase ribozyme fitness (log ratio), cutoff=-2) for item A46U A121U
label 1

Next entry: U14A C85A C89G C123U
label 0

Next entry: C13U C28G C53G U78G C88A U106A G110A A111G
label 1

Next entry: A74U C101U G113A C123G
label 1

Next entry: C22U C56A G69U U78C
label 0

Next entry: A91G U112A G127C
label 1

Next entry: C8G A50C
label 1
